Below: a set of entries, each annotated with reported herbicidal action AVEFA.
system: Avena fatua; assay: Post-emergence herbicidal action, AVEFA; format: in vivo; parameters: key: % herbicidal action vs untreated; 100 = plants died, 0 = like control; details: post-emergence, dosage 80 g/ha
Provide the reading as a plain figure in %.

Cn1nnnc1NC(=O)c1ccc(C(F)(F)F)c(C[S+](C)[O-])c1Br (stereo not shown) [Example 1-381] :: 100
Cn1nnnc1NC(=O)c1ccc(C(F)F)c(CS(C)(=O)=O)c1Cl [Example 1-322] :: 80
CC[S+]([O-])Cc1c(C(F)(F)F)ccc(C(=O)Nc2nnnn2C)c1Cl (racemic) [Example 1-300] :: 100

[Q] // output herbicidal action AVEFA; input Cn1nnnc1NC(=O)c1ccc(C(F)(F)F)c(CSC2CC2)c1Cl [Example 1-302] ; system Avena fatua
[A] 100

[Q] // output herbicidal action AVEFA; input CSc1c(C(=O)Nc2nnnn2C)ccc(C(F)(F)F)c1C[S+](C)[O-] (stereo not shown) [Example 1-162] ; system Avena fatua
[A] 100

[Q] // output herbicidal action AVEFA; input CSCc1c(C(F)(F)F)ccc(C(=O)Nc2nnnn2C)c1Br [Example 1-380] ; system Avena fatua
[A] 100

[Q] // output herbicidal action AVEFA; input CCSCc1c(C(F)F)ccc(C(=O)Nc2nnnn2C)c1Cl [Example 1-323] ; system Avena fatua
[A] 100

[Q] // output herbicidal action AVEFA; input Cn1nnnc1NC(=O)c1ccc(I)c(C[S+](C)[O-])c1Cl (racemic) [Example 1-363] ; system Avena fatua
[A] 100

[Q] // output herbicidal action AVEFA; input CCn1nnnc1NC(=O)c1ccc(C(F)(F)F)c(C[S+]([O-])CC)c1Cl (stereo not shown) [Example 2-300] ; system Avena fatua
[A] 100

[Q] // output herbicidal action AVEFA; input CCSCc1c(C(F)(F)F)ccc(C(=O)Nc2nnnn2C)c1Br [Example 1-383] ; system Avena fatua
[A] 90

* * *

tested on: Polygonum convolvulus; assay: Post-emergence herbicidal action, POLCO; assay type: in vivo; conditions: post-emergence, dosage 80 g/ha
Below: a set of entries, each annotated with reported herbicidal action POLCO.
Provide the reading as a plain figure in %.

Past entries and their recorded results:
Cn1nnnc1NC(=O)c1ccc(C(F)(F)F)c(CSC2CC2)c1Cl :: 100
CC[S+]([O-])Cc1c(C(F)(F)F)ccc(C(=O)Nc2nnnn2C)c1Br (racemic) :: 90
C=CCSCc1c(C(F)(F)F)ccc(C(=O)Nc2nnnn2C)c1Cl :: 90
CCSCc1c(C(F)(F)F)ccc(C(=O)Nc2nnnn2C)c1Cl :: 80
Cn1nnnc1NC(=O)c1ccc(C(F)(F)F)c(CS(=O)(=O)C2CC2)c1Cl :: 100

// switching to the query compound
[Q] // output herbicidal action POLCO; input `CCn1nnnc1NC(=O)c1ccc(C(F)(F)F)c(CSCCOC)c1Cl` ; system Polygonum convolvulus
[A] 100

* * *

tested on: Polygonum convolvulus; experiment: Post-emergence herbicidal action, POLCO; type: in vivo; conditions: comparative experiment, post-emergence, 5 g of a.i./ha
measurement name: Herbicidal action against POLCO
The reply should be a number, written without any unit.

[Q] Tell me measured Herbicidal action against POLCO for `COc1c(C(=O)Nc2nnnn2C)ccc(Cl)c1CSC` please.
[A] 30

[Q] Tell me measured Herbicidal action against POLCO for `CCSCc1c(C(F)(F)F)ccc(C(=O)Nc2nnnn2C)c1Cl` please.
[A] 60
